molecular target: recombinant human ACC2 (Homo sapiens, UniProt O00763); construct: a full length Cytomax clone of ACC2 was purchased from Cambridge Bioscience Limited; made in house; host or cells: CHO cells (tetracycline induction, pcDNA5 FRT TO-TOPO); purified on a Softlink Soft Release Avidin column; assay: Measurement of human ACC2 inhibition (recombinant hACC2 Transcreener ADP detection FP assay); format: biochemical; conditions: recombinant hACC2 transcreener assay; read-out: rhACC2 IC50
Sequence (O00763 whole entry): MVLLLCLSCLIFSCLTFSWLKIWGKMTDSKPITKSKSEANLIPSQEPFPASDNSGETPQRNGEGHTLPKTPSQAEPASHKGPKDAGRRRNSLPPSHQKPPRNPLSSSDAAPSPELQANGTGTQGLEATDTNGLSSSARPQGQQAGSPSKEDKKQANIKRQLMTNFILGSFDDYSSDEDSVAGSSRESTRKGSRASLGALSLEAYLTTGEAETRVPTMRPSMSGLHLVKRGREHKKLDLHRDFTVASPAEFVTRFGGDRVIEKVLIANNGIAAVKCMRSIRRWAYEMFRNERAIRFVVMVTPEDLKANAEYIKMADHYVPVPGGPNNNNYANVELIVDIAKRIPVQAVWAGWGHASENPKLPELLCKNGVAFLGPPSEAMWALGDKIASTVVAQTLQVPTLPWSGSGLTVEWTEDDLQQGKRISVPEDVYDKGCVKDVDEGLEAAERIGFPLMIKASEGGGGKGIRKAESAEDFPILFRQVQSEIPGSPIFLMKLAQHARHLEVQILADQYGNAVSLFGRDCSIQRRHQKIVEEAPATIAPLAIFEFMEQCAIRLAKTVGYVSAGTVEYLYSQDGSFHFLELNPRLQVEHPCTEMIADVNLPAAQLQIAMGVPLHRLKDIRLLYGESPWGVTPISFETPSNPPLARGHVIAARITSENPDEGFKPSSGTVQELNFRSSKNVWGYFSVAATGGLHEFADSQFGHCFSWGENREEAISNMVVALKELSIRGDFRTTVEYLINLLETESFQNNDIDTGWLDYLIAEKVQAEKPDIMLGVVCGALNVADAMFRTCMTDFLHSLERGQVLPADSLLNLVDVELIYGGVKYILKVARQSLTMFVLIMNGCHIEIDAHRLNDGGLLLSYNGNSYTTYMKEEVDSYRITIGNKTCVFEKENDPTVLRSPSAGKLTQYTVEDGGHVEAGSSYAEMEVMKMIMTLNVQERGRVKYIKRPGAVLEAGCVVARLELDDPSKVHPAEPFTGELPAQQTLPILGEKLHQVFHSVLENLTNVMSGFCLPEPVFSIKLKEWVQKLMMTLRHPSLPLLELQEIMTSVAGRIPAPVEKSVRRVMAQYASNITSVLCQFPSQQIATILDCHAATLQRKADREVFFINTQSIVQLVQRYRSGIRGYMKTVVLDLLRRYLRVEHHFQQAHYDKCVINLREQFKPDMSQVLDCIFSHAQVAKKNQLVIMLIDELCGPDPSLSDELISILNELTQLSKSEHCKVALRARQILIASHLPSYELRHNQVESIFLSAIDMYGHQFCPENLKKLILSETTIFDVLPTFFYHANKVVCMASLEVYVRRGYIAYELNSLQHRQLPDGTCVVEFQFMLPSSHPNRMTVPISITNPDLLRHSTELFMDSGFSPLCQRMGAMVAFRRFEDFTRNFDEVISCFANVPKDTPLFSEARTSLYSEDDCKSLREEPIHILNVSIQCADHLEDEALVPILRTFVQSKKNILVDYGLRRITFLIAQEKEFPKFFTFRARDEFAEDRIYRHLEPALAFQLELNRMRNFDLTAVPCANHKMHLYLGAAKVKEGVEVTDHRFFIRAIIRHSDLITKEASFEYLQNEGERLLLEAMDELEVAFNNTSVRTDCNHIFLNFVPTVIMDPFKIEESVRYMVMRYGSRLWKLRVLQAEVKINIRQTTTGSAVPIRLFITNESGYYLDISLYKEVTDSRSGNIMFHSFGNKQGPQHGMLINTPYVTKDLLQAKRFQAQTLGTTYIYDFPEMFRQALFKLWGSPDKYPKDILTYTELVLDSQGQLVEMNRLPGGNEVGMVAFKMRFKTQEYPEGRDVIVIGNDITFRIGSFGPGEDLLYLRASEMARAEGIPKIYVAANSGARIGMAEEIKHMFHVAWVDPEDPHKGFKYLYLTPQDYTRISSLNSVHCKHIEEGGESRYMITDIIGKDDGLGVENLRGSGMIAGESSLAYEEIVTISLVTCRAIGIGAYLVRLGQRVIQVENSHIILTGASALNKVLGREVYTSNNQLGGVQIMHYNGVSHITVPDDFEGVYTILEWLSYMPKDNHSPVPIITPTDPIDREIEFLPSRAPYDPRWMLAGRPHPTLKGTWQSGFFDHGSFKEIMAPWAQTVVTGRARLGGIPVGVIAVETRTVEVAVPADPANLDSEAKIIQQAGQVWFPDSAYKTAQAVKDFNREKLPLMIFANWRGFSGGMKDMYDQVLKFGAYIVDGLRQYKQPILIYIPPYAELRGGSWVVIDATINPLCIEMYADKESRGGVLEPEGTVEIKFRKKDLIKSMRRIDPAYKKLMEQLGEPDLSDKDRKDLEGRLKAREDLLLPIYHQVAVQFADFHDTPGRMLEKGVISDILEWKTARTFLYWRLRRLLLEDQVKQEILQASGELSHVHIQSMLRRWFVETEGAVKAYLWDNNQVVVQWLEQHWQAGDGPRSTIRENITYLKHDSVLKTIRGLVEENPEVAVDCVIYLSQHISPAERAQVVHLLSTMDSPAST
The following compounds are shown together with reported pIC50 values.
As a rule, pIC50 stands for the negative log10 of the concentration, concentration in M.

>>> df
                                   compound   val
0  CCCn1cc2c(n1)C(=O)CC1(CCN(C(=O)c3cc(C)c4[nH]nc(Cl)c4c3)CC1)O2 [1.109]  7.92

QUERY: State the recorded pIC50 for this entry: COc1cccc2cc(C(=O)N3CCC4(CC3)CC(=O)c3nn(C(C)(C)C)cc3O4)ccc12 [6.006]
RESULT: 8.15

QUERY: Try the compound CC(C)(C)n1cc2c(n1)C(=O)CC1(CCN(C(=O)c3ccc4c(=O)[nH]ccc4c3)CC1)O2 [19.001]
RESULT: 8.05

QUERY: Try the compound CCn1nc2c(c1C)OC1(CCN(C(=O)c3ccc4nc[nH]c4c3)CC1)CC2=O [3.026]
RESULT: 6.77

QUERY: Try the compound CCn1nc2c(c1C)OC1(CCN(C(=O)c3cc(F)c4nc(C)[nH]c4c3)CC1)CC2=O [3.018]
RESULT: 6.98

QUERY: Try the compound CC(C)(C)n1cc2c(n1)C(=O)CC1(CCN(C(=O)c3ccc4cn[nH]c4c3)CC1)O2 [2.012]
RESULT: 8.15

* * *

The following compounds are shown together with reported IC50 values.
target: recombinant human ACC2 (Homo sapiens, UniProt O00763); construct: a full length Cytomax clone of ACC2 was purchased from Cambridge Bioscience Limited; made in house; host or cells: CHO cells (tetracycline induction, pcDNA5 FRT TO-TOPO); purified on a Softlink Soft Release Avidin column; assay: Measurement of human ACC2 inhibition (recombinant hACC2 Transcreener ADP detection FP assay); assay type: biochemical; settings: recombinant hACC2 transcreener assay; read-out: rhACC2 IC50
Return type: number; implicit unit nM.

Use the examples below as a reference point.
                                   compound  unitabbrev  val
0  CC(C)(C)n1cc2c(n1)C(=O)CC1(CCN(C(=O)c3ccc4cnoc4c3)CC1)O2 [23.005]          nM  158
1  CC(C)n1cc2c(n1)C(=O)CC1(CCN(C(=O)c3ccc4ocnc4c3)CC1)O2 [9.001]          nM  300
2  Cc1nc2c(C)cc(C(=O)N3CCC4(CC3)CC(=O)c3nn(C(C)C)cc3O4)cc2[nH]1 [3.001]          nM   28

QUERY: State the recorded IC50 for this entry: CCn1cc2c(n1)C(=O)CC1(CCN(C(=O)c3cc(Cl)c4[nH]ncc4c3)CC1)O2 [1.062]
RESULT: 43

QUERY: Try the compound Cc1n[nH]c2c(C)cc(C(=O)N3CCC4(CC3)CC(=O)c3nn(C(C)(C)C)cc3O4)cc12 [1.012]
RESULT: 2

QUERY: Try the compound Cc1cc(C(=O)N2CCC3(CC2)CC(=O)c2nn(C(C)C)cc2O3)cc2cn[nH]c12 [1.022]
RESULT: 28

* * *

biological target: recombinant human ACC2 (Homo sapiens, UniProt O00763); construct: a full length Cytomax clone of ACC2 was purchased from Cambridge Bioscience Limited; made in house; host or cells: CHO cells (tetracycline induction, pcDNA5 FRT TO-TOPO); purified on a Softlink Soft Release Avidin column; assay: Measurement of human ACC2 inhibition (recombinant hACC2 Transcreener ADP detection FP assay); type: biochemical; conditions: recombinant hACC2 transcreener assay; read-out: rhACC2 IC50
pIC50: −log10 of the molar value.
Label Satisfied when pIC50 is at or above 8; otherwise label Not satisfied.

Observe how each entry below is paired with its result.
In [3]: df
Out[3]:
                                  molsmiles  assignedclass
0  CCn1nc2c(c1C)OC1(CCN(C(=O)c3ccc4c(C)noc4c3)CC1)CC2=O  Not satisfied
1  Cc1nc2c(C)cc(C(=O)N3CCC4(CC3)CC(=O)c3nn(C(C)(C)C)cc3O4)cc2[nH]1      Satisfied
2  CCc1n[nH]c2c(C)cc(C(=O)N3CCC4(CC3)CC(=O)c3nn(C(C)C)cc3O4)cc12      Satisfied
3  CCc1nn(C)c2cc(C(=O)N3CCC4(CC3)CC(=O)c3nn(CC)cc3O4)ccc12  Not satisfied
4  CN1C(=O)CCc2ccc(C(=O)N3CCC4(CC3)CC(=O)c3nn(C(C)(C)C)cc3O4)cc21  Not satisfied
5  CCn1nc2c(c1C)OC1(CCN(C(=O)c3cc(C)c4[nH]c(=O)ccc4c3)CC1)CC2=O  Not satisfied

QUERY: Hi team, for CCn1nc2c(c1C)OC1(CCN(C(=O)c3ccc4c(c3)nc(O)n4C)CC1)CC2=O , is the recorded pIC50 at or above 8?
RESULT: Not satisfied

QUERY: Try the molecule CC(C)(C)n1cc2c(n1)C(=O)CC1(CCN(C(=O)c3ccc4ncsc4c3)CC1)O2
RESULT: Not satisfied

QUERY: Try the molecule Cc1n[nH]c2ccc(C(=O)N3CCC4(CC3)CC(=O)c3nn(C)cc3O4)cc12
RESULT: Not satisfied

QUERY: Try the molecule CCc1n[nH]c2c(OC)cc(C(=O)N3CCC4(CC3)CC(=O)c3nn(C(C)C)cc3O4)cc12
RESULT: Satisfied

* * *

target: recombinant human ACC2 (Homo sapiens); construct: a full length Cytomax clone of ACC2 was purchased from Cambridge Bioscience Limited; made in house; host or cells: CHO cells (tetracycline induction, pcDNA5 FRT TO-TOPO); purified on a Softlink Soft Release Avidin column; test: Measurement of human ACC2 inhibition (recombinant hACC2 Transcreener ADP detection FP assay); type: biochemical; details: recombinant hACC2 transcreener assay; read-out: rhACC2 IC50
The following compounds are shown together with reported pIC50 values.
As a rule, pIC50 stands for the negative log10 of the concentration, concentration in M.

                                  molsmiles   val
0  Cc1n[nH]c2c(C)cc(C(=O)N3CCC4(CC3)CC(=O)c3nn(C5CC5)cc3O4)cc12  8.15
1  CCn1cc2c(n1)C(=O)CC1(CCN(C(=O)c3cc(C)c4[nH]nc(C)c4c3)CC1)O2  7.96

// switching to the query compound
QUERY: Query for recombinant human ACC2 (Homo sapiens): what pIC50 does the record show for Cc1cc(C(=O)N2CCC3(CC2)CC(=O)c2nn(C(C)(C)C)cc2O3)cc2c1ncn2C ?
RESULT: 7.82
